Study target: hGIPR (Homo sapiens, UniProt P48546)
Sequence (P48546 22-466): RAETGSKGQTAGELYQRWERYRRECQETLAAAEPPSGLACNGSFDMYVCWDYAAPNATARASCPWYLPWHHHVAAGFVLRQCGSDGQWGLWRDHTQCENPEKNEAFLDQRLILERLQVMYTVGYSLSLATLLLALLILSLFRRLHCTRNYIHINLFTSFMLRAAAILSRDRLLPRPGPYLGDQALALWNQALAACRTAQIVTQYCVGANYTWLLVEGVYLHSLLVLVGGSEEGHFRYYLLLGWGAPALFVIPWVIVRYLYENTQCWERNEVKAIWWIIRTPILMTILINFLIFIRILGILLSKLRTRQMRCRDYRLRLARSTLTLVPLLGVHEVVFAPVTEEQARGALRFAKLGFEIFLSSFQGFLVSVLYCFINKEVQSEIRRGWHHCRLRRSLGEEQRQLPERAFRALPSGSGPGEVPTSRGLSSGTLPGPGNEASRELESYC
Experiment summary: Functional cAMP activation in the presence of 0.1% casein (no HSA);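 further: intracellular cAMP rise after 30 min at 37 °C read by HTRF against a standard curve, scaled between buffer alone (0%) and top control ligand concentration (100%), four-parameter fit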
Format: cell-based
Conditions: in the presence of 0.1% casein (no HSA); geometric mean; read-out: Relative cAMP EC50, hGIPR
Starred links: 1 amine or outer side, 2 acyl side, 3 side chain; linkers in the order of their positions; H or OH if unused. Non-standard residues stand in square brackets, D forms with d. Groups on a side chain read outwards from the residue. *: point of attachment. C18 diacid = O=C(O)CCCCCCCCCCCCCCCCC(=O)*; γGlu = O=C(O)[C@H](CCC(=O)[*:2])N[*:1]; αMe4Pal = C[C@](N)(Cc1ccncc1)C(=O)O; αMeY = C[C@](N)(Cc1ccc(O)cc1)C(=O)O; 4Pal = N[C@@H](Cc1ccncc1)C(=O)O; αMeL = CC(C)C[C@](C)(N)C(=O)O; Orn = NCCC[C@H](N)C(=O)O; Dab = NCC[C@H](N)C(=O)O; AEEA = NCCOCCOCC(=O)O; Aib = CC(C)(N)C(=O)O
Quantity: EC50 (nM)

In [3]: df
Out[3]:
                                  substance  readout_value
0  H-Y[Aib]QGTFTSD[4Pal]SK[αMeL]LDKK([AEEA-γGlu-C18 diacid])AQ[Aib]AFIEYLIA[Aib]GESSGAPPPSGS-NH2 [Example 285]         0.0652
1  H-Y[Aib]QGTFTSD[4Pal]S[Dab][αMeL]LDKK([AEEA-γGlu-C18 diacid])AQ[Aib]AFIEYLIE[Aib]GESSGAPPPSGS-NH2 [Example 188]          0.193
2  H-Y[Aib]QGTFTSD[4Pal]SQ[αMeL]LD[Orn]K([dE-γGlu-C18 diacid])AQ[αMe4Pal]AFIE[αMeY]LLAGGPSSGAPPPSGSEEE-NH2 [Example 1082]          0.099
